- ASSAY: amyloid nucleation score (Sup35N fusion, yeast selection) (log enrichment); library NNK1; higher = more nucleation; inactive = no reads after selection;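 further: zero at mode of non-aggregating sequences after 7 days selection at 30°C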
For each record, write down the corresponding amyloid nucleation score.
One number for each entry.

Solved entries (count: 5):
SUBSTANCE | amyloid nucleation score
KWNFVHMDQKGKELNSLFSL | -0.649
VEVLWVEDGSQF | -0.559
MTSCMRWAVNRYSFLLWKAN | -0.416
GSRSHRSH | 0.751
LMLVHRVF | -0.034

Please state amyloid nucleation score for every substance in the list that follows.
1. MCSSKPSGPLAVN
2. SSNSPCMPVRRTADNPSPYA

1: -1.02; 2: 0.239

Query DSSSYICSLSSPYSWSISFF yields amyloid nucleation score of 7.37
